I'd appreciate it if you could supply IC50 values for the items below.
# assay-target: Cdk4/Cyclin D (Homo sapiens, UniProt P11802)
# Sequence (P11802 whole entry, species assumed): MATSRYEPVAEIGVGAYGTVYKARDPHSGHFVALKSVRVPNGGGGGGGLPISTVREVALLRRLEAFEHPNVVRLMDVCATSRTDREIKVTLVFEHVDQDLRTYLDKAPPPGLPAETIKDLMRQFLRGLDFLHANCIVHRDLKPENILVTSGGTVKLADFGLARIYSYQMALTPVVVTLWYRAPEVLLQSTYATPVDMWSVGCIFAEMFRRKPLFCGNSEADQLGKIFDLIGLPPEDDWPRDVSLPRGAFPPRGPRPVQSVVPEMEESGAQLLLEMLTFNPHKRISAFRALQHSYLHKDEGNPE
# Sequence (P24385 whole entry partner, species assumed): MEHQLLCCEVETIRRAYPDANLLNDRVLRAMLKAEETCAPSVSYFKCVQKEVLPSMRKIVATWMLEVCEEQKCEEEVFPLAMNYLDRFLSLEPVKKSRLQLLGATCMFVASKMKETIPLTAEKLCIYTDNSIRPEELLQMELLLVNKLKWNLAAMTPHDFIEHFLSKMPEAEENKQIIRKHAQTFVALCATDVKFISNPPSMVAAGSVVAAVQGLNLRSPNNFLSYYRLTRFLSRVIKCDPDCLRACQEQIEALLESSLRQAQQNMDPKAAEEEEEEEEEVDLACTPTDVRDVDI
# protocol-details: Assay for inhibition of Cdk4/Cyclin D (32P incorporation into retinoblastoma protein, filter plate)
Please give a number only; it is taken to be in nM.

Find IC50 (Cdk4/Cyclin D (Homo sapiens, UniProt P11802)) for the entry "COc1ccc2cnc(Nc3ccc(N4CCNCC4)cn3)nc2c1C1CCCC1" 4

Find IC50 (Cdk4/Cyclin D (Homo sapiens, UniProt P11802)) for the entry CCc1nc2cnc(Nc3ccc(N4CCNCC4)cc3)nc2n(C2CCCC2)c1=O [10′, reference compound] 28

Find IC50 (Cdk4/Cyclin D (Homo sapiens, UniProt P11802)) for the entry "CCc1nc2cnc(Nc3ccc(N4CCNCC4)cn3)nc2n(C2CCCC2)c1=O" 335

Find IC50 (Cdk4/Cyclin D (Homo sapiens, UniProt P11802)) for the entry "Cc1nc2cnc(Nc3ccc(N4CCNCC4)cn3)nc2n(C2CCCC2)c1=O" 510

Find IC50 (Cdk4/Cyclin D (Homo sapiens, UniProt P11802)) for the entry Cc1nc2cnc(Nc3ccc(N4CCNCC4)cc3)nc2n(C2CCCC2)c1=O [8′, reference compound] 14

----------
# assay-target: Cdk2/cyclin A (Homo sapiens)
# protocol-details: Assay for inhibition of Cdk2/Cyclin A (32P incorporation into retinoblastoma protein, filter plate)
I'd appreciate it if you could supply pIC50 values for the items below.
To interpret pIC50, take it as minus log10 of a concentration measured in moles per litre.

Recorded pIC50 for CCc1nc2cnc(Nc3ccc(N4CCNCC4)cc3)nc2n(C2CCCC2)c1=O [10′, reference compound] , please? 5.38

Recorded pIC50 for "COc1ccc2cnc(Nc3ccc(N4CCNCC4)cn3)nc2c1C1CCCC1" , please? 5.77

Recorded pIC50 for Cc1nc2cnc(Nc3ccc(N4CCNCC4)cc3)nc2n(C2CCCC2)c1=O [8′, reference compound] , please? 6.04
